tgt: T1, human GLP-1 receptor (human, UniProt P43220 24-463)
T1 construct: whole, on cells
experiment: SPA competition vs 125I-GLP-1(7-36)NH2, hGLP-1R BHK membranes, low HSA
*1 amine or outer side, *2 acyl side, *3 side chain or, on linkers, in order; H or OH if unused. Where no end group is shown, it is not given here. Side-chain parts run from the residue outwards. [ ]: non-standard residue; d: D form. The star is where a group is joined. code 2xAEEA = O=C(COCCOCCN[*:1])NCCOCCOCC(=O)[*:2]; C20 diacid = O=C(O)CCCCCCCCCCCCCCCCCCC(=O)*; γGlu = O=C(O)[C@H](CCC(=O)[*:2])N[*:1]; Trx = NC[C@H]1CC[C@H](C(=O)O)CC1; code LysOEG = not defined here; Lys(Bis) = not defined here; AEEA = NCCOCCOCC(=O)O; Aib = CC(C)(N)C(=O)O
Labelling: IC50 reported below 1 nM becomes Criterion met; at or above becomes Criterion not met.

For orientation, consider the following solved cases.
H[Aib]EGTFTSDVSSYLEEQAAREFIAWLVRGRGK (not fully specified (residue 32); printed as N{Alpha}([Aib8,Glu22,Arg26,Arg34]-GLP-1-(7-37)-peptidyl)-N{Epsilon}[(2S)-2,6-bis[[2-[2-[2-[[2-[2-[2-[[(4S)-4-carboxy-4-[[1-(19-carboxynonadecanoyl)piperidine-4-carbonyl]amino]butanoyl]amino]ethoxy]ethoxy]acetyl]amino]ethoxy]ethoxy]acetyl]amino]hexanoyl]Lys, Side chain read from the name: eps-Lys(Bis) branched linker, each leg C20 diacid-Inp-gGlu-2xOEG)    Criterion met
H[Aib]EGTFTSDVSSYLEEQAAREFIAWLVRGRGAEAPK([code LysOEG-AEEA-γGlu-Trx-C20 diacid)(OEG-AEEA-γGlu-Trx-C20 diacid]) (reading uncertain, Side chain read from the name: eps-Lys(Bis) branched linker, each leg C20 diacid-Trx-gGlu-2xOEG)    Criterion not met
H[Aib]EGTFTSDVSSYLEEQAAREFIAWLVRGRGSSEAEK([Lys(Bis)-code 2xAEEA-AEEA-γGlu-Trx-C20 diacid]) (reading uncertain, Side chain read from the name: eps-Lys(Bis) branched linker, each leg C20 diacid-Trx-gGlu-2xOEG)    Criterion not met

Shift focus to the following entry.
Does the reported IC50 of H[Aib]EGTFTSDVSSYLEEQAAREFIAWLVRGRGPAEEK([Lys(Bis)-code 2xAEEA-AEEA-γGlu-Trx-C20 diacid]) (reading uncertain, Side chain read from the name: eps-Lys(Bis) branched linker, each leg C20 diacid-Trx-gGlu-2xOEG) stay below 1 nM?
Criterion not met
